Data credit: the supplement of paper PMC9233669

Tested on: biotinyl-Leu-oxazolone
Test: self-aminoacylation, catalytic enhancement (BLO) (fold over background); higher = more active; k-Seq, kA / k0A0; sequences stand for … in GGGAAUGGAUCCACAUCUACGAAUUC…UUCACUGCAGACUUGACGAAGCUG
This sample holds only a part of the variants without activity.
observable: self-aminoacylation
Answer using only a numeral; do not append any unit.

Incoming: Which self-aminoacylation value belongs to CUACUUCAAUCAAUCGGUCGG [Fam1A.1 aminoacylation ribozyme variant] ?
Outgoing: 1.47

Incoming: Consider the sequence shown here: AUUCUCCUAGGUCAUCGGGUU [Fam2.2 aminoacylation ribozyme variant] What is its recorded self-aminoacylation?
Outgoing: 4.14

Incoming: Need self-aminoacylation, item AUUCUACUAGGUCAUCGGGUG [Fam2.2 aminoacylation ribozyme variant]
Outgoing: 7.31

Incoming: For AUUCACCUUGGUCAUCGGGUA [Fam2.2 aminoacylation ribozyme variant] , what is its reported self-aminoacylation?
Outgoing: 2.64

Incoming: Please give the measured self-aminoacylation for this sequence: AUUAUCCUAGGUCAUCGGGUG [Fam2.2 aminoacylation ribozyme variant]
Outgoing: 14.5

====

Please provide measured self-aminoacylation for the entries that follow.
Tested on: biotinyl-Leu-oxazolone
Test: self-aminoacylation, catalytic enhancement (BLO) (fold over background); higher = more active; k-Seq, kA / k0A0; sequences stand for … in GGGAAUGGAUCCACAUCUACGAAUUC…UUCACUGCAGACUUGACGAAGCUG
Fewer inactive variants are shown than the library holds.
Respond using a number only.

Incoming: Any idea what its self-aminoacylation is? The sequence is AAGUUUGCUAACAGUCGCGAG [Fam3.1 aminoacylation ribozyme variant]
Outgoing: 1.24

Incoming: Returns the measured self-aminoacylation for the input sequence. Input: CUACUUCAAUCUAUCGGUCUG [Fam1A.1 aminoacylation ribozyme variant]
Outgoing: 0.836

Incoming: I would be grateful if you could share the reported self-aminoacylation for AUUACCCCGGUCAUCGCGUGA [Fam2.1 aminoacylation ribozyme variant] .
Outgoing: 24.3

Incoming: GET /values?readout=self-aminoacylation&item= CUGCUUCAAACAAUCGGUGUG [Fam1A.1 aminoacylation ribozyme variant]
Outgoing: 3.16

====

Tested on: biotinyl-Ile-oxazolone
Assay: self-aminoacylation, catalytic enhancement (BIO) (fold over background); higher = more active; k-Seq, kA / k0A0; sequences stand for … in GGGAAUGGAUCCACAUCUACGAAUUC…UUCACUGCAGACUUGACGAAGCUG
This sample holds only a part of the variants without activity.
Quick rule for you: self-aminoacylation at 2 or higher means True, lower means False.

Incoming: API: above_or_equal(metric=self-aminoacylation, cutoff=2) for item AAGGUUGCUAAUAGUCUCAAG [Fam3.1 aminoacylation ribozyme variant]
Outgoing: False

Incoming: Assess whether reported self-aminoacylation for CCACUUCAAACAAUCGGUUUG [Fam1A.1 aminoacylation ribozyme variant] sits at 2 or higher.
Outgoing: False

Incoming: Please indicate if the recorded self-aminoacylation for AUUCUCCUAGGUCAUCGGGUU [Fam2.2 aminoacylation ribozyme variant] meets or exceeds 2.
Outgoing: True

Incoming: Could you tell me if the measured self-aminoacylation of AUUCACGUACGUCAUCGGGUG [Fam2.2 aminoacylation ribozyme variant] reaches 2 or more?
Outgoing: True

Incoming: Identify whether the reported self-aminoacylation of the following sequence is 2 or greater: AAGUUCGCUAAUAGUGGCAAG [Fam3.1 aminoacylation ribozyme variant]
Outgoing: False

Incoming: Does AAGUUUGAUAAGAGUCGCAAG [Fam3.1 aminoacylation ribozyme variant] have a reported self-aminoacylation of at least 2?
Outgoing: False

Incoming: Decide: is the reported value of self-aminoacylation for AAGUUUGCAAAUAGCCGCAAG [Fam3.1 aminoacylation ribozyme variant] equal to or greater than 2?
Outgoing: False

Incoming: Decide: self-aminoacylation of GAGUUUGCUAAUAGUCACAAG [Fam3.1 aminoacylation ribozyme variant] >= 2?
Outgoing: False

Incoming: Reported self-aminoacylation at or above 2? AAGUUUGCUGAUAGUCGCAAU [Fam3.1 aminoacylation ribozyme variant]
Outgoing: False

Incoming: Is reported self-aminoacylation greater than or equal to 2 here: CUACUUCAAUCAAACGGUCUG [Fam1A.1 aminoacylation ribozyme variant]
Outgoing: False

Incoming: Given the entry GAGUUUGCUAACAGUCGCAAG [Fam3.1 aminoacylation ribozyme variant] , answer whether its self-aminoacylation meets or surpasses 2.
Outgoing: False

Incoming: Is the recorded value of self-aminoacylation equal to or greater than 2 for this sequence? AUUCUCCUAGGUCAUCGGGCG [Fam2.2 aminoacylation ribozyme variant]
Outgoing: True

Incoming: Is reported self-aminoacylation greater than or equal to 2 here: CCAAACUUCAAGCAAUCGGGC [Fam1B.1 aminoacylation ribozyme variant]
Outgoing: True

Incoming: Has AUUACCCAGGUCCUCGAGUGA [Fam2.1 aminoacylation ribozyme variant] a recorded self-aminoacylation greater than or equal to 2?
Outgoing: True

Incoming: Is reported self-aminoacylation greater than or equal to 2 here: AUGUUUGCUAAGAGUCGCAAG [Fam3.1 aminoacylation ribozyme variant]
Outgoing: False

Incoming: In plain terms: is recorded self-aminoacylation at least 2 for AUUACCCUGGUCGACGAGUGA [Fam2.1 aminoacylation ribozyme variant] ?
Outgoing: True

====

Test system: biotinyl-Leu-oxazolone
Assay: self-aminoacylation, catalytic enhancement (BLO) (fold over background); higher = more active; k-Seq, kA / k0A0; sequences stand for … in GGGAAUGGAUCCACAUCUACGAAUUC…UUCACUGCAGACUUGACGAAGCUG
This sample holds only a part of the variants without activity.
observable: self-aminoacylation
Please reply with the number alone, leaving off any unit.

Incoming: Which self-aminoacylation reading was recorded for the sequence CUACUUAAUACAAUCGGUCUG [Fam1A.1 aminoacylation ribozyme variant] ?
Outgoing: 0.761

Incoming: Recorded self-aminoacylation of CUACCUCAAACGAUCGGUCUG [Fam1A.1 aminoacylation ribozyme variant] , please.
Outgoing: 1.03

Incoming: Quick one: self-aminoacylation for CCCCUUCAAACAAUCGGUCUG [Fam1A.1 aminoacylation ribozyme variant] ?
Outgoing: 3.29

Incoming: # self-aminoacylation lookup, item AUUACCAUGGGCAUCGAGUGA [Fam2.1 aminoacylation ribozyme variant]
Outgoing: 6.48

Incoming: What self-aminoacylation value was documented for this sequence, AUACACCUAGGUUAUCGGGUG [Fam2.2 aminoacylation ribozyme variant] ?
Outgoing: 2.99

Incoming: Record request: self-aminoacylation value, item AUUACCCUGCCCAUCGAGUGA [Fam2.1 aminoacylation ribozyme variant]
Outgoing: 5.53

Incoming: Fill in: self-aminoacylation of AUUCACCUAGGUCAACGGGGG [Fam2.2 aminoacylation ribozyme variant] is ___
Outgoing: 2.19

Incoming: Could you tell me which self-aminoacylation is on file for CUACUUCAAUCAAACGGUCUG [Fam1A.1 aminoacylation ribozyme variant] ?
Outgoing: 0.671

Incoming: Which self-aminoacylation is reported for this sequence? CUACUUCAAACAAUAGGUCGG [Fam1A.1 aminoacylation ribozyme variant]
Outgoing: 0.754

Incoming: So what's the measured self-aminoacylation for this one? AAGUUUGCAAAUUGUCGCAAG [Fam3.1 aminoacylation ribozyme variant]
Outgoing: 1.57

Incoming: # input sequence: CUUCUUCAAACAAUCGGUCUG [Fam1A.1 aminoacylation ribozyme variant] ; wanted: its self-aminoacylation
Outgoing: 1.41

Incoming: Dear colleague, I am looking for the recorded self-aminoacylation of the following sequence: AAGUUCGCUAAUAAUCGCAAG [Fam3.1 aminoacylation ribozyme variant]
Outgoing: 1.02

Incoming: Give the measured self-aminoacylation of AUUAACCUGGUGAUCGAGUGA [Fam2.1 aminoacylation ribozyme variant] .
Outgoing: 6.66

Incoming: Consider the sequence shown here: AUUACCCUGGUAAUCGAGAGA [Fam2.1 aminoacylation ribozyme variant] What is its recorded self-aminoacylation?
Outgoing: 0.723

Incoming: Requested field: self-aminoacylation. Item: AAGUUUGCUAGUAAUCGCAAG [Fam3.1 aminoacylation ribozyme variant]
Outgoing: 0.733

Incoming: Recorded self-aminoacylation of AUUCACCUAGGUCAUCAGGAG [Fam2.2 aminoacylation ribozyme variant] , please.
Outgoing: 1.01

Incoming: So what's the measured self-aminoacylation for this one? AUCACCCUUGUCAUCGAGUGA [Fam2.1 aminoacylation ribozyme variant]
Outgoing: 10.1

Incoming: Quick check: self-aminoacylation of AAGUUUGCUAACAGUCGAAAG [Fam3.1 aminoacylation ribozyme variant] ?
Outgoing: 0.689

====

Tested on: biotinyl-Leu-oxazolone
Test: self-aminoacylation, catalytic enhancement (BLO) (fold over background); higher = more active; k-Seq, kA / k0A0; sequences stand for … in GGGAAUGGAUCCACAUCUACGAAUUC…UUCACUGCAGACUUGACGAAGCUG
Variants at the floor of the assay were thinned out.
observable: self-aminoacylation

Incoming: Observed self-aminoacylation on biotinyl-Leu-oxazolone for AUUACCCUGGUCGACGAGUGA [Fam2.1 aminoacylation ribozyme variant] , please.
Outgoing: 5.32

Incoming: Give self-aminoacylation (biotinyl-Leu-oxazolone) of the following sequence: CCACACUUCACGCAAUCUGUC [Fam1B.1 aminoacylation ribozyme variant]
Outgoing: 0.447

Incoming: Lookup: self-aminoacylation / biotinyl-Leu-oxazolone / CCAAACUUCAAGCAAACGGUC [Fam1B.1 aminoacylation ribozyme variant]
Outgoing: 0.607

Incoming: What is its self-aminoacylation for biotinyl-Leu-oxazolone? Entry: CUACUUUAGACAAUCGGUCUG [Fam1A.1 aminoacylation ribozyme variant]
Outgoing: 0.7

Incoming: Could you share what self-aminoacylation was measured for AAGUGUGCUAAUAGUCGCGAG [Fam3.1 aminoacylation ribozyme variant] , tested on biotinyl-Leu-oxazolone?
Outgoing: 2.47

Incoming: Return self-aminoacylation measured with biotinyl-Leu-oxazolone given this sequence: AAGUUUGCCAAUGGUCGCAAG [Fam3.1 aminoacylation ribozyme variant]
Outgoing: 1

Incoming: Give biotinyl-Leu-oxazolone self-aminoacylation for CUACUUCAAACAAGCGGUCUA [Fam1A.1 aminoacylation ribozyme variant]
Outgoing: 0.73

Incoming: Lab request: please report self-aminoacylation under test system biotinyl-Leu-oxazolone for AAAUUUGCUUAUAGUCGCAAG [Fam3.1 aminoacylation ribozyme variant]
Outgoing: 1.93
